Kindly state % Injury for each of the entries shown.
test system: non-transformed Coker 310 variety of cotton (WT); test: Butanoic acids of triclopyr and fluroxypyr greenhouse trials, negative control plants (% injury); format: in vivo, Gossypium hirsutum; conditions: 560 g ai/ha, 6 DAA, 2-3 leaf stage
Only the number, expressed in a %, is required.

# input Look up % Injury for this compound: Nc1c(Cl)c(F)nc(OCCCC(=O)O)c1Cl
# output 41.3

# input What about this compound? O=C(O)COc1nc(Cl)c(Cl)cc1Cl
# output 35

# input What about this compound? Nc1c(Cl)c(F)nc(OCC(=O)O)c1Cl
# output 41.3

# input What about this compound? O=C(O)CCCOc1nc(Cl)c(Cl)cc1Cl
# output 35

---

tested on: non-transformed Coker 310 variety of cotton (WT); assay: Butanoic acids of triclopyr and fluroxypyr greenhouse trials, negative control plants (% injury); assay type: in vivo, Gossypium hirsutum; conditions: 280 g ai/ha, 14 DAA, 2-3 leaf stage
observable: % Injury (ab %)
Only the number, expressed in ab %, is required.

# input Look up % Injury for this compound: Nc1c(Cl)c(F)nc(OCCCC(=O)O)c1Cl [Fluroxypyr-b, fluroxypyr-B]
# output 62.5

# input What about this compound? Nc1c(Cl)c(F)nc(OCC(=O)O)c1Cl [Fluroxypyr, fluroxypyr]
# output 65

# input What about this compound? O=C(O)COc1nc(Cl)c(Cl)cc1Cl [Triclopyr, triclopyr]
# output 60

# input What about this compound? O=C(O)CCCOc1nc(Cl)c(Cl)cc1Cl [Triclopyr-b, triclopyr-B]
# output 57.5

---

Kindly state % Injury for each of the entries shown.
test system: non-transformed Coker 310 variety of cotton (WT); assay: Butanoic acids of triclopyr and fluroxypyr greenhouse trials, negative control plants (% injury); assay type: in vivo, Gossypium hirsutum; conditions: 280 g ai/ha, 3 DAA, 2-3 leaf stage
Only the number, expressed in a %, is required.

# input Look up % Injury for this compound: O=C(O)COc1nc(Cl)c(Cl)cc1Cl [Triclopyr, triclopyr]
# output 32.5

# input What about this compound? O=C(O)CCCOc1nc(Cl)c(Cl)cc1Cl [Triclopyr-b, triclopyr-B]
# output 27.5

---

system: cotton event pDAB4468.19.10.3 (aad-12); experiment: Tolerance to butanoic acids of triclopyr and fluroxypyr in greenhouse trials (% injury); format: in vivo, Gossypium hirsutum; settings: 280 g ai/ha, 14 DAA, 2-3 leaf stage
Kindly state % Injury for each of the entries shown.
Only the number, expressed in a %, is required.

# input Look up % Injury for this compound: O=C(O)CCCOc1nc(Cl)c(Cl)cc1Cl [Triclopyr-b, triclopyr-B]
# output 0

# input What about this compound? O=C(O)COc1nc(Cl)c(Cl)cc1Cl [Triclopyr, triclopyr]
# output 0

---

Kindly state % Injury for each of the entries shown.
system: non-transformed Coker 310 variety of cotton (WT); assay: Butanoic acids of triclopyr and fluroxypyr greenhouse trials, negative control plants (% injury); type: in vivo, Gossypium hirsutum; settings: 140 g ai/ha, 3 DAA, 2-3 leaf stage
Only the number, expressed in bc %, is required.

# input Look up % Injury for this molecule: Nc1c(Cl)c(F)nc(OCC(=O)O)c1Cl
# output 32.5

# input What about this molecule? Nc1c(Cl)c(F)nc(OCCCC(=O)O)c1Cl
# output 32.5

---

tested on: non-transformed Coker 310 variety of cotton (WT); test: Butanoic acids of triclopyr and fluroxypyr greenhouse trials, negative control plants (% injury); type: in vivo, Gossypium hirsutum; conditions: 560 g ai/ha, 6 HAA, 2-3 leaf stage
observable: % Injury (ab %)
Only the number, expressed in ab %, is required.

# input Look up % Injury for this compound: Nc1c(Cl)c(F)nc(OCCCC(=O)O)c1Cl [Fluroxypyr-b, fluroxypyr-B]
# output 20

# input What about this compound? Nc1c(Cl)c(F)nc(OCC(=O)O)c1Cl [Fluroxypyr, fluroxypyr]
# output 22.5
